TEST: Plasma pharmacokinetics after local prostate implant in male beagle dogs (Example 3)
Format: in vivo, dog
CONDITION_CONTEXT: male, beagle, dog, plasma, 500 mg, beagle dog plasma, local prostate implant 500 mg, individual animals; read-out: Cmax
OBSERVATION_TYPE: Cmax

* CC(C)(O)C(=O)Nc1ccc([N+](=O)[O-])c(C(F)(F)F)c1 [2-hydroxy-flutamide] | 102 ng/mL

###

TEST: Plasma pharmacokinetics and tissue level after local administration of ceramic-based controlled release composition into dog prostate (Example 1)
Type: in vivo
CONDITION_CONTEXT: male, Labrador, plasma; dog H3, 30 mg local prostate implant
OBSERVATION_TYPE: Cmax (ng/mL)

• CC(C)(O)C(=O)Nc1ccc([N+](=O)[O-])c(C(F)(F)F)c1 [2-hydroxy-flutamide] = 26.4

###

TEST: Plasma pharmacokinetics and tissue level after local administration of ceramic-based controlled release composition into dog prostate (Example 1)
Assay type: in vivo
CONDITION_CONTEXT: male, Labrador, dog, plasma; dogs, local prostate implant, on average; read-out: bioavailability from the intraprostate tissue (approximation)
OBSERVATION_TYPE: bioavailability

- CC(C)(O)C(=O)Nc1ccc([N+](=O)[O-])c(C(F)(F)F)c1 [2-hydroxy-flutamide]: > 100%

###

TEST: Plasma pharmacokinetics and tissue level after local administration of ceramic-based controlled release composition into dog prostate (Example 1)
Assay type: in vivo
CONDITION_CONTEXT: male, Labrador, plasma; dog H3, 30 mg local prostate implant
OBSERVATION_TYPE: AUC (ng·h/mL)

• CC(C)(O)C(=O)Nc1ccc([N+](=O)[O-])c(C(F)(F)F)c1 [2-hydroxy-flutamide] = 990

###

TEST: Plasma pharmacokinetics and tissue level after controlled release implant into bulbourethral gland of male sheep (Example 2)
Assay type: in vivo
CONDITION_CONTEXT: male, sheep, plasma, 250 mg, male sheep, 250 mg implant into bulbourethral gland, Mean of seven sheep; read-out: AUC
OBSERVATION_TYPE: AUC (ng·h/mL)

• CC(C)(O)C(=O)Nc1ccc([N+](=O)[O-])c(C(F)(F)F)c1 [2-hydroxy-flutamide] = 3770

###

TEST: Plasma pharmacokinetics after local prostate implant in male beagle dogs (Example 3)
Assay type: in vivo, dog
CONDITION_CONTEXT: male, beagle, dog, plasma, 250 mg, beagle dogs, local prostate implant 250 mg, Mean of four animals; read-out: t½ (converted)
OBSERVATION_TYPE: half-life (h)

• CC(C)(O)C(=O)Nc1ccc([N+](=O)[O-])c(C(F)(F)F)c1 [2-hydroxy-flutamide] = 33

###

TEST: Plasma pharmacokinetics after local prostate implant in male beagle dogs (Example 3)
Assay type: in vivo, dog
CONDITION_CONTEXT: male, beagle, dog, plasma, 500 mg, beagle dog plasma, local prostate implant 500 mg, individual animals; read-out: AUC
OBSERVATION_TYPE: AUC (ng·h/mL)

• CC(C)(O)C(=O)Nc1ccc([N+](=O)[O-])c(C(F)(F)F)c1 [2-hydroxy-flutamide] = 10200

###

TEST: Plasma pharmacokinetics and tissue level after local administration of ceramic-based controlled release composition into dog prostate (Example 1)
Format: in vivo
CONDITION_CONTEXT: male, Labrador, plasma; dog H2, 60 mg local prostate implant
OBSERVATION_TYPE: Tmax (h)

• CC(C)(O)C(=O)Nc1ccc([N+](=O)[O-])c(C(F)(F)F)c1 [2-hydroxy-flutamide] = 6
